Test system: MDA-MB-231
Test: NCI tumour cell line growth inhibition, 48 h
The source made the active and inactive calls. Cut-off read from the data, not from the text of the source: active = GI50 up to about 1.1 µM and inactive = higher.
Possible outcomes: active, inactive

molecule	answer_label
CC1=C[C@@H](C)C[C@]2(C)CC[C@H](O2)[C@]23CC[C@](C)(C[C@H](O2)[C@@H]2O[C@@](C)(CC2=O)[C@@H](O)[C@H]2CC[C@@]4(CCC[C@@H](O4)[C@H](C)C(=O)O[C@H]4C[C@H]([C@]5(O)OCC[C@H](C)[C@@H]5O)O[C@H]4C=C1)O2)O3	active
CCOC(=O)c1sc2nc(SC)nc3c2c1NCN3C1CC1	inactive
O=[N+]([O-])c1cccc2nc3ccccc3c(NCCCN3CCCCC3)c12	active
CCOC(=O)NC(Nc1c(F)c(F)c(F)c(F)c1F)(C(F)(F)F)C(F)(F)F	inactive
Cn1cc(S(=O)(=O)NC(=O)Nc2ccc(Cl)cc2)c(=O)c2ccc(Cl)cc21	inactive
O=C(C=P(c1ccccc1)(c1ccccc1)c1ccccc1)c1ccc(-c2cccc([N+](=O)[O-])c2)cc1	inactive
COc1c2c(cc3oc(C)cc(=O)c13)OC(=N)C(C(N)=O)C2CC(=O)c1ccc(N)cc1 (stereo not drawn)	inactive
Cc1ccc2nc(-c3ccc(N)c(Br)c3)sc2c1	inactive
O=C(CCc1ccc(O)c(O)c1)NCCc1cc(O)cc(OCc2ccccc2)c1	inactive
C/N=C/N(C)c1c2ccccc2nc2ccccc12	inactive
CCOC(CBr)OC1C(=O)OCC1(C)C (stereo not drawn)	inactive
C=C1CN(C2=NCCO2)C1	inactive
Cn1c(N)nc2c(nc(OCc3ccccc3)n2C2OC(CO)C(O)C2O)c1=O (stereo not drawn)	inactive
CCOC(=O)c1cc(=O)c2ccnc3c2n1CCS3	inactive
c1ccc(-c2nnn3c2NC2=C(CCCC2)C3c2ccccc2)cc1 (stereo not drawn)	inactive
c1ccc(NN=C(c2ccccn2)c2ccccn2)nc1	active
CN(C)CCNC(=O)c1cccc2nc3c(ccc4ccccc43)nc12	inactive
CC1(C=O)CCC23COC4(CCC5C6(C)CCC(OC7OCC(OC8OC(CO)C(O)C(OC9OC(CO)C(O)C(O)C9O)C8OC8OCC(O)C(O)C8O)C(O)C7OC7OC(CO)C(O)C(O)C7O)C(C)(C)C6CCC5(C)C4(C)CC2O)C3C1 (stereo not drawn)	active
